Hey, just so you know, these numbers are from ChEMBL document CHEMBL3864142.

# Tested on: Pseudomonas aeruginosa
# TEST PROTOCOL: Antibacterial activity against Pseudomonas aeruginosa ATCC 15442 at 10 uM by disc diffusion method
# Assay type: functional
# CONDITION LABEL: read-out: DIZ
READOUT KIND: zone of inhibition at 10 µM (mm)
Respond with the bare value in mm.

Past entries and their recorded results:
>>> test_result("CCCCSN1CCN(c2cc3c(cc2F)c(=O)c(C(=O)O)cn3C2CC2)CC1")
28
>>> test_result("O=C(O)c1cn(C2CC2)c2cc(N3CCN(Sc4ccc([N+](=O)[O-])cc4)CC3)c(F)cc2c1=O")
27

Problem: Assign zone of inhibition at 10 µM to the following record: CCCSN1CCN(c2cc3c(cc2F)c(=O)c(C(=O)O)cn3C2CC2)CC1
Result: 32

Problem: Assign zone of inhibition at 10 µM to the following record: CSN1CCN(c2cc3c(cc2F)c(=O)c(C(=O)O)cn3C2CC2)CC1
Result: 29

Problem: Assign zone of inhibition at 10 µM to the following record: CC(C)SN1CCN(c2cc3c(cc2F)c(=O)c(C(=O)O)cn3C2CC2)CC1
Result: 31
